Here the recorded IC50 is given for each entry.
Test target: Leucine-rich repeat serine/threonine-protein kinase 2 (Homo sapiens, UniProt Q5S007)
Sequence (Q5S007 whole entry, the tested form may be a part): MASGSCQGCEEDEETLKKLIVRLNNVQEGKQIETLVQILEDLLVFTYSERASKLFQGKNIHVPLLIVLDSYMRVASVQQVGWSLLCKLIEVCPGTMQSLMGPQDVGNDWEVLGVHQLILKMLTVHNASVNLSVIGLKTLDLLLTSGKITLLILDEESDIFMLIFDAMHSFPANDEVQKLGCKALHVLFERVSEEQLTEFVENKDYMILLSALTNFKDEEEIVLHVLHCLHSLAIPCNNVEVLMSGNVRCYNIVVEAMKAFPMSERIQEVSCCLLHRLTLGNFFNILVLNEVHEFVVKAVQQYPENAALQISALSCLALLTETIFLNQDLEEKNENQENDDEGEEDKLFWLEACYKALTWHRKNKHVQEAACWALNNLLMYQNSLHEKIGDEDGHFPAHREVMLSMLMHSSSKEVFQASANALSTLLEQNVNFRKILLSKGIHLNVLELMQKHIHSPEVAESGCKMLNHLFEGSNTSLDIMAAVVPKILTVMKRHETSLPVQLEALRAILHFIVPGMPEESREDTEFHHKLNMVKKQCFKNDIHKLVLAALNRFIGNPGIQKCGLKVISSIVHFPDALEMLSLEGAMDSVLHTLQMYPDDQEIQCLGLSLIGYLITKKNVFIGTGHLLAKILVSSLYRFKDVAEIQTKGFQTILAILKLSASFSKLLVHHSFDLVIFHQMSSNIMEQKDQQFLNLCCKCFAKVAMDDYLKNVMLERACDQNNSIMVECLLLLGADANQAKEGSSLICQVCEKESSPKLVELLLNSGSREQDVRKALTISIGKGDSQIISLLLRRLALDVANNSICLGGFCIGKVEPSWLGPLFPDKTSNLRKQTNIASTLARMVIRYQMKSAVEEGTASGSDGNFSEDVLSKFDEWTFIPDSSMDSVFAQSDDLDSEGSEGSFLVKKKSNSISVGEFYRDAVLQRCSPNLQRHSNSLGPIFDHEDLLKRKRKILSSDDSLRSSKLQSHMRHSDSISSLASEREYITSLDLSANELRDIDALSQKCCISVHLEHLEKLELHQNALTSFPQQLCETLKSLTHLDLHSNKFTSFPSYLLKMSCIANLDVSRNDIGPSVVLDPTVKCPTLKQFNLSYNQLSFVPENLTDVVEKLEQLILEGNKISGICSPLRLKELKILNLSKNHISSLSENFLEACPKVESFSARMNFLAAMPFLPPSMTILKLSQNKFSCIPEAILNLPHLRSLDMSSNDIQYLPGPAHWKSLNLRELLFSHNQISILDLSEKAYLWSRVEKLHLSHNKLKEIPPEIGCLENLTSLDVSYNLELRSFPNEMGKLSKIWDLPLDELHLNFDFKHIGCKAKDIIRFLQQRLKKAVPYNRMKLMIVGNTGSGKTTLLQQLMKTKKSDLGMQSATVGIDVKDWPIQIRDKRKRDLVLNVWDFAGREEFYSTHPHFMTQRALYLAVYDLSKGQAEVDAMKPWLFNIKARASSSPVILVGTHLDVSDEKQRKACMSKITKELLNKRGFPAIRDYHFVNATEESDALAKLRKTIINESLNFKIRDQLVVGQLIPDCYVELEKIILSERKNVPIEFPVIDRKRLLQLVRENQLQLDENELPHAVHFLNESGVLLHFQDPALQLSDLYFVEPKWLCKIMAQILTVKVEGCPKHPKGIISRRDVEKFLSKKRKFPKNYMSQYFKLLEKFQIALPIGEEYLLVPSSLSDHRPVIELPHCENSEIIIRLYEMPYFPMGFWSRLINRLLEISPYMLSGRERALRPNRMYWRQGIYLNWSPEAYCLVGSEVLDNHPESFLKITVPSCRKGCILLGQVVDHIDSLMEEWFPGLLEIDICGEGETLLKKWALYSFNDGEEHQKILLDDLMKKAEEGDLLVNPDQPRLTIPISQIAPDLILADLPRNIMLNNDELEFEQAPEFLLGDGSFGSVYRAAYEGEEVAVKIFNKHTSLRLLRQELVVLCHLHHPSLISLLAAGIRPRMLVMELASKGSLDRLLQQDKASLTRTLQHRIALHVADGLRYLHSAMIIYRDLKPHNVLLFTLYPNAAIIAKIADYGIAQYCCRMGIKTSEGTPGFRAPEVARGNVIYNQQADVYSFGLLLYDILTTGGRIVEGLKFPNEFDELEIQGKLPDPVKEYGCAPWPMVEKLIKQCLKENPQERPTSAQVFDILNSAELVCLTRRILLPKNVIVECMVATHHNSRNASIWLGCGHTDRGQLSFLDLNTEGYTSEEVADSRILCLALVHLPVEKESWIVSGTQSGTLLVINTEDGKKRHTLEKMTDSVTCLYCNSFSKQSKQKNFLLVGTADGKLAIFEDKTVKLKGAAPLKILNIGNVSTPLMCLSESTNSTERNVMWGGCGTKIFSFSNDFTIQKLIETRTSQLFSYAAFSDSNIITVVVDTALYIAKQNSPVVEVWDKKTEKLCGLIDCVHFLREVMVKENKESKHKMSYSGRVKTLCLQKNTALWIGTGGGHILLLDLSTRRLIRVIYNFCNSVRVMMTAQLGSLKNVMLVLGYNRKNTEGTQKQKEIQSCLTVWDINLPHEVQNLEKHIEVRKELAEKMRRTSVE
Assay explanation: Inhibition of recombinant catalytic human GST-tagged LLRK2 (970 to 2527 residues) expressed in baculovirus expression system using LRRKtide as substrate after 1 hr by alexaFluor-ADP-based FRET assay
API: value field is a number in µM; no unit string.

Answered cases to consult:
>  <Molecular string>
COc1ccc2c(c1)C(=NN1CCOCC1)C(=O)N2

>  <Readout name>
IC50

>  <Meas value>
6.02

$$$$
>  <Molecular string>
O=C1Nc2ccc(F)cc2C1=NN(c1ccccc1)c1ccccc1

>  <Readout name>
IC50

>  <Meas value>
0.02

$$$$
>  <Molecular string>
O=C1Nc2ccccc2C1=Nc1ccccc1F

>  <Readout name>
IC50

>  <Meas value>
2.34

$$$$

Please examine the following record next.
Sample CN(C)c1ccc(N=C2C(=O)Nc3ccccc32)cc1 ; IC50 observed: 3.79
